Test system: MIWI (PIWIL1) piRISC loaded with piRNA #1 (30 nt);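 further: 1 nM active piRISC with 0.1 nM target library at 33 °C single turnover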
EXPERIMENTAL_PROTOCOL: pre-steady-state target cleavage rate (min^-1); higher = faster piRNA-guided slicing of the target
SETUP_CONDITIONS: guide: piRNA #1 5'p-UGAGGUAGUAGGUUGUAUAGUAUCCAGAGG; auxiliary factor: 500 nM mouse GTSF1
Over roughly 6,200 sequences, “pre-steady-state target cleavage rate” has its median near 0.29; the highest 2% begin near 2. This excerpt belongs to a sample that is enriched for the highest values.
OBSERVATION_TYPE: pre-steady-state target cleavage rate
The answer should be a number; do not append a unit.

GGUCAGGAUACUAUACAACCUACUAGCUCA : 0.255
CCUCUGGAUACUAUACAACCCUACUACCUCA : 0.00658
GCUCUGAAUACUAUACAACCUACUACCUCA : 1.89
GGUCUGGAUACAAUACAACCUAGUACCUCA : 0.562
CCUCUGGAUACUAUGCAACCUACUACCUCA : 2.09
GCUCUGGAUACUAUUCAACCUACUACCACA : 1.9

Report pre-steady-state target cleavage rate, nothing else, for this sequence: `GGUCUGGAUACUAUUCAACCUACAACCUCA`
0.28

Report pre-steady-state target cleavage rate, nothing else, for this sequence: `CCUCUGGAUACUAUACAACCUACUACCCUCA`
1.38

====

System: MIWI (PIWIL1) piRISC loaded with piRNA #1 (30 nt);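 further: 1 nM active piRISC with 0.1 nM target library at 33 °C single turnover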
EXPERIMENTAL_PROTOCOL: pre-steady-state target cleavage rate (min^-1); higher = faster piRNA-guided slicing of the target
SETUP_CONDITIONS: guide: piRNA #1 5'p-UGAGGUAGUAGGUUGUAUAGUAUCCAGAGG; auxiliary factor: 500 nM mouse GTSF1
The full ranking holds about 6,200 sequences; the median of “pre-steady-state target cleavage rate” is about 0.29, and the highest 2% start at about 2. The full list was thinned out, with the highest values kept by preference.
Known pre-steady-state target cleavage rate of a selection of sequences
The answer should be a number; do not append a unit.

GGAGUGCAUUCUAUACAACCUACUACCUCA : 1.32
GCUCGGGAUACUAUACAACCUACUACCUCA : 1.5
GCUCUCGAUACUUUACAACCUACUACCUCA : 1.69

Please tell me the measured pre-steady-state target cleavage rate for `GCUCUGGAUACUAUACAACGUACUUCCUCA` ; system: MIWI (PIWIL1) piRISC loaded with piRNA #1 (30 nt).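 Further: 1 nM active piRISC with 0.1 nM target library at 33 °C single turnover.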
0.486

Please tell me the measured pre-steady-state target cleavage rate for `CCUCUCGGAUACUAUACAACCUACUACCUCA` ; system: MIWI (PIWIL1) piRISC loaded with piRNA #1 (30 nt).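 Further: 1 nM active piRISC with 0.1 nM target library at 33 °C single turnover.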
2.06

Please tell me the measured pre-steady-state target cleavage rate for `GCUCUGGAUACUAUACUACCUACAACCUCA` ; system: MIWI (PIWIL1) piRISC loaded with piRNA #1 (30 nt).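 Further: 1 nM active piRISC with 0.1 nM target library at 33 °C single turnover.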
0.938

====

System: MIWI (PIWIL1) piRISC loaded with piRNA #1 (30 nt);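 further: 1 nM active piRISC with 0.1 nM target library at 33 °C single turnover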
EXPERIMENTAL_PROTOCOL: pre-steady-state target cleavage rate (min^-1); MIWI and MILI are mouse PIWI proteins and EfPiwi is from a freshwater sponge; tags in brackets are library labels; higher = faster piRNA-guided slicing of the target;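 further: 1 nM active piRISC with 0.1 nM target library at 33 °C single turnover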
SETUP_CONDITIONS: guide: piRNA #1 5'p-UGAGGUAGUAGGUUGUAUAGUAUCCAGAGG; auxiliary factor: 500 nM mouse GTSF1
In all, about 6,200 sequences were measured (“pre-steady-state target cleavage rate”: median about 0.29, highest 2% from about 2 on). What follows is part of a selection rich in the highest values, with near analogues and random picks from the rest.
Grouping rule (pre-steady-state target cleavage rate): small value = under 1, mid value = from 1 up to 2, large value = 2 and over

Solved cases (8 shown):
GGACUGGAUACUAUACAACCUACUACCUCC [g2:g27:cont:t1C] : mid value
GGUCAGGAUUCUAUACAACCUACUACCUCA : mid value
GGAGACGAUACUUUACAACCUACUAGCUCA : small value
GGAGUGCAUACAAUACAACCUACUACCUCA : mid value
GCUACUGGAUACUAUACAACCUACUACCUCA : large value
GGUCUGGAUACUAUAUAACCUACUACCUCA : mid value
CCUCUGGAUACUAUACAACCUAGUACCUCA : small value
GGACUGGAUACUAUACUACCUACAACCUCA : small value

Category of `GCUUCUGGAUACUAUACAACCUACUACCUCA` , please.
mid value

Category of `CCUCUGGAUACUAAACUACCUACUACCUCA` , please.
mid value
